Source: paper PMC5185321

- assaySummary: Pharmacokinetics in CD1 mice
- Type: in vivo
- experimentalConditions: CD1, mouse, plasma, ip, 30 mg/kg
assayEndpoint: AUC(0-t) (ng·h/mL)
Note: unit ng·h/mL is implicit; provide only the numeric part.

(Q) Tell me the measured AUC(0-t) of CC(C)CCn1c(CN2CCN(C(=O)C3CC3)CC2)nc2c1c(=O)n(C)c(=O)n2C [Compound 64] , please.
(A) 5670

* * *

For each record, write down the corresponding half-life at 1 µM.
- assaySummary: High-throughput RLM stability
- Type: in vitro ADME
- experimentalConditions: rat, rat liver microsomes, pH 7.4
Note: unit min is implicit; provide only the numeric part.

(Q) Tell me the measured half-life at 1 µM of Cc1cccc(Cn2c(OC3CCNCC3)nc3c2c(=O)n(C)c(=O)n3C)c1 [Compound 14] , please.
(A) 21

(Q) What do you have for Cn1c(=O)c2c(nc(OC3CCN(C(=O)C4CC4)CC3)n2CCC2CCCCC2)n(C)c1=O [Compound 54] ?
(A) 1

(Q) What do you have for CCOC(=O)N1CCN(Cc2nc3c(c(=O)n(C)c(=O)n3C)n2Cc2cccc(C)c2)CC1 [Compound 5] ?
(A) 5
